All values here come from PubChem BioAssay (NCI).

- Tested on: RPMI-8226 leukemia
- assay_overview: NCI tumour cell line growth inhibition, 384-well format; in the data active means GI50 below about 0.43 µM; inactive means the rest
Result category, one only: active, inactive

structure: C=CC(=O)Nc1cccc(Nc2nc(Nc3ccc(N4CCN(C(C)=O)CC4)cc3OC)ncc2C(F)(F)F)c1
measurement_target: RPMI-8226 leukemia
class: inactive
--
structure: CN1C(=O)C(C)(C)Oc2c(-c3cn(C)c(=O)c4[nH]ccc34)cc(S(C)(=O)=O)cc21
measurement_target: RPMI-8226 leukemia
class: active
--
structure: CC(=O)Nc1nc(C)c(-c2cc3c(c(S(C)(=O)=O)c2)C(=O)N([C@@H](C)C2CC2)C3)s1
measurement_target: RPMI-8226 leukemia
class: inactive

We next turn to a different compound, shown below.
Q) Per the records of this test, what outcome belongs to CC(=O)N1c2ccc(-c3ccc(C(=O)O)cc3)cc2[C@H](Nc2ccc(Cl)cc2)C[C@@H]1C ?
A) active
